test-description: Selectivity index, ratio of CC50 for human HeLa cells to IC50 for pleconaril-resistant Coxsackievirus B3 97927 11207M/I1092 mutant infected in HeLa cell line assessed as inhibition of virus-induced cytopathic effect
Assay type: toxicity
measurement-setup: read-out: Selectivity Index
reported-metric: selectivity ratio

smiles-notation	reported-metric	val
Cc1cc(-c2noc(C(F)(F)F)n2)ccc1OCCCc1cc(C(=O)N(C)C)no1	selectivity ratio	1340

====

test-description: Selectivity index, ratio of CC50 for human HeLa cells to IC50 for Coxsackievirus B3 97927 wild type infected in HeLa cell line assessed as inhibition of virus-induced cytopathic effect
Format: toxicity
measurement-setup: read-out: Selectivity Index

smiles-notation	selectivity ratio
Cc1cc(-c2noc(C(F)(F)F)n2)ccc1OCCCc1cc(C(=O)N(C)C)no1	669
